Measured EC50 at 24 h values are reported for all entries that follow.
Protocol: Neurotoxicity against mouse HT-22 cells assessed as cell survival treated for 24 hrs by MTS assay
Type: toxicity, cell-based

Recorded results for 5 compounds are shown here.
>>> measured("Cc1ccc(NC2=N/C(=C\\c3ccc4c(c3)OCO4)C(=O)N2)cc1C")
"> 20 µM"
>>> measured("CNC1=N/C(=C\\c2ccc3c(c2)OCO3)C(=O)N1")
"> 20 µM"
>>> measured("CCSC1=N/C(=C\\c2ccc3c(c2)OCO3)C(=O)N1")
"> 20 µM"
>>> measured("NC1=N/C(=C\\c2ccc3c(c2)OCO3)C(=O)N1")
"> 20 µM"
>>> measured("O=C1NC(Nc2ccccn2)=N/C1=C\\c1ccc2c(c1)OCO2")
"> 20 µM"

Give the measured EC50 at 24 h of CCCNC1=N/C(=C\c2ccc3c(c2)OCO3)C(=O)N1c1ccccc1 .
> 20 µM
